Target: T1, Human IL12 (His Tag) (human, UniProt P29459 23-219; P29460 23-328)
T1 construct: Bought His-tagged heterodimer
T1 sequence (looked up) 1: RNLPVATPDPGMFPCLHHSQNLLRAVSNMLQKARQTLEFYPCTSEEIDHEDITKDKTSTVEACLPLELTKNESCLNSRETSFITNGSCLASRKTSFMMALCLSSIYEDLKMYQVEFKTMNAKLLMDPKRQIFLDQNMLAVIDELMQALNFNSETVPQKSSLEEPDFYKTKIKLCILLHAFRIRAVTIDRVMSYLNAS
T1 sequence (looked up) 2: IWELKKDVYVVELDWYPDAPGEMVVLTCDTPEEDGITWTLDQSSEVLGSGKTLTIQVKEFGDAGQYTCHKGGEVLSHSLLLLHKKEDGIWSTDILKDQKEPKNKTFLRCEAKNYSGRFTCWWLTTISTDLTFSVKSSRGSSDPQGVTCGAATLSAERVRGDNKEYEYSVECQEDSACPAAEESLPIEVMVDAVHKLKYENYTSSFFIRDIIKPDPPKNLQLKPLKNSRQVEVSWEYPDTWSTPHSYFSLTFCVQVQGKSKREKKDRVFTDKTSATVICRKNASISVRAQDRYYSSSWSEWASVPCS
Assay: FACS competition, IL-12-His 20 nM on 293T-IL-12Rβ1&IL-23R cells; antibody 30 µg/mL
measure name: MFI (MFI)
Write the value in MFI as a bare number.

Exam item: What value of MFI has been reported for the following binder? H5L10 (antibody, human IgG1, kappa, V domains shown, human IgG1 / kappa constant regions; also called humanized antibody H5L10) VH: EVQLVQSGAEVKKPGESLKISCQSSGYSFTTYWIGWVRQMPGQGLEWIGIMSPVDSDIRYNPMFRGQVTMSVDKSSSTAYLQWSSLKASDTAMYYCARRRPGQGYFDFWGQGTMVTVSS VL: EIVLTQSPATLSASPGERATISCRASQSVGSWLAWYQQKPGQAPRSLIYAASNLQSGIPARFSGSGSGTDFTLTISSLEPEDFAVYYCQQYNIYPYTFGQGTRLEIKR
Marked response: 31.6

Exam item: What value of MFI has been reported for the following binder? H5L14 (antibody, human IgG1, kappa, V domains shown, human IgG1 / kappa constant regions; also called humanized antibody H5L14) VH: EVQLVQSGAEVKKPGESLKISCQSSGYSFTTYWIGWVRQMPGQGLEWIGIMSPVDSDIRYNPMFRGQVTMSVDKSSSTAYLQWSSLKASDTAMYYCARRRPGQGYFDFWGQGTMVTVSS VL: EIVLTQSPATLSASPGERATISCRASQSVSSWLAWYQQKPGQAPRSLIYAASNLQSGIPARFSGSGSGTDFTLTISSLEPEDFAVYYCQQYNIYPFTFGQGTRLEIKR
Marked response: 34.9
